MEASUREMENT TARGET: human platelet heparanase (Homo sapiens)
Construct: 10 ng of purified human platelet heparanase; from tissue; host or cells: human platelets
Sequence (Q9Y251 158-543 limits assumed): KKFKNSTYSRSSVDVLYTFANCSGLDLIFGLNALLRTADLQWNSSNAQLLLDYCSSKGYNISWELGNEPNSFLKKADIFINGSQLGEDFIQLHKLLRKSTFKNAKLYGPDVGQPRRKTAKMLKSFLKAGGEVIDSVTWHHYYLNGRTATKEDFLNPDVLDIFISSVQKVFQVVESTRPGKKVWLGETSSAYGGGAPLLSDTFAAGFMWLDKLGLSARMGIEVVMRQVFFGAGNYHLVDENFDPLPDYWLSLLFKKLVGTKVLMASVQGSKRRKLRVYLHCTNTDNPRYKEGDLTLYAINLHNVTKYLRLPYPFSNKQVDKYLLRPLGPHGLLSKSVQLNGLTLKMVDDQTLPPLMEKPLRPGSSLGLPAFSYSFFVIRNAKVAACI
Sequence (Q9Y251 36-109 limits assumed): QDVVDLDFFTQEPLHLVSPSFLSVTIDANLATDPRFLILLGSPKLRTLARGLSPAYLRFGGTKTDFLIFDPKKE
TEST METHOD NOTES: Heparanase inhibition, 3H-radiolabelled HS cleavage assay
Format: biochemical
ASSAY CONTEXT: heparanase inhibition; read-out: EC50 (converted)
EC50: recorded values

Example cases with answers are listed next.
COMPOUND: O=S(=O)(O)O[C@H]1[C@H](OS(=O)(=O)O)[C@@H](N(CCCCN([C@H]2C=C[C@@H](OS(=O)(=O)O)[C@@H](OS(=O)(=O)O)[C@@H]2OS(=O)(=O)O)[C@H]2C=C[C@@H](OS(=O)(=O)O)[C@@H](OS(=O)(=O)O)[C@@H]2OS(=O)(=O)O)[C@H]2C=C[C@@H](OS(=O)(=O)O)[C@@H](OS(=O)(=O)O)[C@@H]2OS(=O)(=O)O)C=C[C@H]1OS(=O)(=O)O
EC50: 14.1 µM
//
COMPOUND: O=S(=O)(O)OC1C(OS(=O)(=O)O)C(OS(=O)(=O)O)C(N(CCCCCCCCCCN(C2C(OS(=O)(=O)O)C(OS(=O)(=O)O)C(OS(=O)(=O)O)C(OS(=O)(=O)O)C2OS(=O)(=O)O)C2C(OS(=O)(=O)O)C(OS(=O)(=O)O)C(OS(=O)(=O)O)C(OS(=O)(=O)O)C2OS(=O)(=O)O)C2C(OS(=O)(=O)O)C(OS(=O)(=O)O)C(OS(=O)(=O)O)C(OS(=O)(=O)O)C2OS(=O)(=O)O)C(OS(=O)(=O)O)C1OS(=O)(=O)O (stereo not shown)
EC50: 20.6 µM
//
COMPOUND: O=S(=O)(O)O[C@H]1[C@H](OS(=O)(=O)O)[C@@H](N(CCCCCCCCCCN([C@H]2C=C[C@@H](OS(=O)(=O)O)[C@@H](OS(=O)(=O)O)[C@@H]2OS(=O)(=O)O)[C@H]2C=C[C@@H](OS(=O)(=O)O)[C@@H](OS(=O)(=O)O)[C@@H]2OS(=O)(=O)O)[C@H]2C=C[C@@H](OS(=O)(=O)O)[C@@H](OS(=O)(=O)O)[C@@H]2OS(=O)(=O)O)C=C[C@H]1OS(=O)(=O)O
EC50: 25.5 µM

// next entry
Q: Could you share which EC50 value was measured for "O=S(=O)(O)O[C@H]1[C@H](OS(=O)(=O)O)[C@@H](N(CCCN([C@H]2C=C[C@@H](OS(=O)(=O)O)[C@@H](OS(=O)(=O)O)[C@@H]2OS(=O)(=O)O)[C@H]2C=C[C@@H](OS(=O)(=O)O)[C@@H](OS(=O)(=O)O)[C@@H]2OS(=O)(=O)O)[C@H]2C=C[C@@H](OS(=O)(=O)O)[C@@H](OS(=O)(=O)O)[C@@H]2OS(=O)(=O)O)C=C[C@H]1OS(=O)(=O)O" ?
Ans: 16.2 µM
